Just for reference, patent US20200239555A1 is where these values come from.

Quick reference for koff among some binders
- target: T1, native human ApoC3 (human, UniProt P02656 21-99)
- T1 construct: also called nhuApoC3; native huApoC3
- T1 sequence (P02656 21-99): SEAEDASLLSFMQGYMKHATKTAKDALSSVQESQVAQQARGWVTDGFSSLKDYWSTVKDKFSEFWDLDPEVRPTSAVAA
- protocolDetails: SPR, ApoC3 over captured IgG1, pH 7.4
- Experimental: An inverted SPR assay was designed in which a test antibody was captured on an SPR chip, human ApoC3 protein was injected, and binding of ApoC3 to the antibody was measured. […] The resulting sensorgrams were analyzed using the BIAevaluation 4.1 software using Langmuir 1:1 binding model to derive binding kinetics. […]
Your answer is read as s⁻¹, so omit the unit and give the number.

Consider the following illustrative entries.
1. mAb2 (antibody, IgG1, V domains shown, Produced as full length IgG1 (kappa) in ExpiCHO-S cells; also called humanized anti-ApoC3 antibody mAb2) VH: QLVESGGGLVQPGGSLRLSCAASGFTFGTYSMRWVRQVPGKGLEWVSSIHTEGGGTAYRDSVKGRFTISRDNAKNTLYLQMNSLRAEDTAIYYCVIAGYSDWGQGTLVTVSS VL: DIVMTQSPLSLPVTPGESASISCKTSQGLVHSDGKTYFYWFLQKPGQSPQQLIYQVSNRASGVPDRFSGSGSGTDFTLKISRVKAEDAGVYYCAHGTYYPHTFGQGTRLEIK :: 0.0046
2. mAb16 (antibody, IgG1, V domains shown, Produced as full length IgG1 (kappa) in ExpiCHO-S cells; also called humanized anti-ApoC3 antibody mAb16) VH: QLVESGGGLVQPGGSLRLSCAASGFTFGTYSMRWVRQAPGKGLEWVSSIHTEAGGTAYRDSVKGRFTISRDNAKNTLYLQMNNLKAEDTAIYYCVIAGYSDWGQGTQVTVSS VL: DIVMTQSPLSLPVTPGESASISCKTSQGLVHSGGKTYFYWFLQKPGQSPQQLIYQVSNRASGVPDRFTGSGSGTDFTLKISRVEAEDAGVYYCAHGTYYPHTFGSGTRLEIK :: 0.0466
3. mAb1 (antibody, IgG1, V domains shown, Produced as full length IgG1 (kappa) in ExpiCHO-S cells; also called humanized anti-ApoC3 antibody mAb1) VH: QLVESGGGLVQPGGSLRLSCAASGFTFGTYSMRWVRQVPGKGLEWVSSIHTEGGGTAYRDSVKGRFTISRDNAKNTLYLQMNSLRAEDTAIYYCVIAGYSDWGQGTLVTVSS VL: DIVMTQSPLSLPVTPGESASISCKTSQGLVHSDGKTYFYWFLQKPGQSPQQLIYQVSNRASGVPDRFTGSGSGTDFTLKISRVKAEDAGVYYCAHGTYYPHTFGQGTRLEIK :: 0.00426

Please report koff for the following binder: mAb6 (antibody, IgG1, V domains shown, Produced as full length IgG1 (kappa) in ExpiCHO-S cells; also called humanized anti-ApoC3 antibody mAb6) VH: QLVESGGGLVQPGGSLRLSCAASGFTFGTYSMRWVRQAPGKGLEWVSSIHTEGGGTAYRDSVKGRFTISRDNAKNTLYLQMNSLRAEDTAVYYCVIAGYSDWGQGTLVTVSS VL: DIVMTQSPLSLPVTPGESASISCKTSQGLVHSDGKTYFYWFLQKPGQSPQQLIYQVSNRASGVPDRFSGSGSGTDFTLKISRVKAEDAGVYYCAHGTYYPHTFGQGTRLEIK
0.00672

Please report koff for the following binder: mAb5 (antibody, IgG1, V domains shown, Produced as full length IgG1 (kappa) in ExpiCHO-S cells; also called humanized anti-ApoC3 antibody mAb5) VH: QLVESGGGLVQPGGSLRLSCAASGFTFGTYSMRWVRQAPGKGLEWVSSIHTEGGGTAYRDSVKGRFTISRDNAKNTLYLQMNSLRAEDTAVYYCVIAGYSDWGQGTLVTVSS VL: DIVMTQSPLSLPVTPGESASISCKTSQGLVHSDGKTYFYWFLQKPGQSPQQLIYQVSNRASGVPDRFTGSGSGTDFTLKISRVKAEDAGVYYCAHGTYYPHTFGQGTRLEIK
0.00637
